Just for reference, paper PMC4336329 is where these values come from.

Target: human ether-à-go-go-related gene (hERG) potassium channel (human);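 also: peak tail current of the secondary pulse compared with the same well before compound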
Sequence (Q12809 whole entry, looked up): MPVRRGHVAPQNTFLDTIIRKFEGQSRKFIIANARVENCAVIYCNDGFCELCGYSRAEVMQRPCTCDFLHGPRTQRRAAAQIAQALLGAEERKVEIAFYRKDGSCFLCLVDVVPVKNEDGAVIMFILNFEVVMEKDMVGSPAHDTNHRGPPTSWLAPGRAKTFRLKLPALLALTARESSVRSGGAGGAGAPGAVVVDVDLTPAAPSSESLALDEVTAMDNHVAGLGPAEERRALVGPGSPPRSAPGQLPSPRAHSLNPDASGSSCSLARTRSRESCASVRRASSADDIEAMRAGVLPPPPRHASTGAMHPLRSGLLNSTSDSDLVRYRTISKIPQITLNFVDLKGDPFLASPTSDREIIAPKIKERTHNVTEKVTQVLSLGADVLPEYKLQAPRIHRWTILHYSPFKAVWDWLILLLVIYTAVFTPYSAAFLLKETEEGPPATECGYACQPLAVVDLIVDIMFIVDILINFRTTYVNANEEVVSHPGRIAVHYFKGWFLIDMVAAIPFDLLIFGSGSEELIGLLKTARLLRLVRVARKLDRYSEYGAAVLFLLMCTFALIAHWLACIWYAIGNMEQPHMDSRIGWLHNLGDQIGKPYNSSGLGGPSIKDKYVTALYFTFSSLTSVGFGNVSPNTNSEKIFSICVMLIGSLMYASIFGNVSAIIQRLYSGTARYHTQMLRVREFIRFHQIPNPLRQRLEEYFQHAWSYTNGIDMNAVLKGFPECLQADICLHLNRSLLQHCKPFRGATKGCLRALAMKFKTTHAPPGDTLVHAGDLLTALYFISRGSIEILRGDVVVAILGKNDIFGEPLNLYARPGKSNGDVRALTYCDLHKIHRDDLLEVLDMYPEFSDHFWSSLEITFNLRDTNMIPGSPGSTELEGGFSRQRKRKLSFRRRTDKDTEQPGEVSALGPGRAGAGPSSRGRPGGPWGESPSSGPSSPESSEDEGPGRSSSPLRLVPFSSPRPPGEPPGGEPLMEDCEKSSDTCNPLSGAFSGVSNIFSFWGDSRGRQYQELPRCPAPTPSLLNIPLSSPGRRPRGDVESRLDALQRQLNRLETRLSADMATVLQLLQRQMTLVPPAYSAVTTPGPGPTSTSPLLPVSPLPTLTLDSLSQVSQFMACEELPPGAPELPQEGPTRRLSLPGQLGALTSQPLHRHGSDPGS
Test: primary screen, population patch clamp on CHO cells stably expressing hERG; higher = less effect of the substance
Among all 310,000 compounds or so, about 14,000 (4.5%) showed an effect of 50% or more. Effects have a minus sign here. Shown is part of a subset that was picked to be rich in strong results.
METRIC_NAME: hERG current change (%, negative = inhibition) at 10uM (%)
State the answer as a number, implicitly in %.

COc1cc(C(=O)OCC(=O)NC(=O)C2CCCCC2)ccc1OC(F)F	15.8
COCCCn1cc(C(=O)c2cc(OC)ccc2OCC(=O)N2CCCCC2C)cc(C#N)c1=O (centres unmarked)	-22.9
N/C(Cc1ccc([N+](=O)[O-])cc1)=N\OC(=O)COc1ccccc1Cl	-21.2
O=C(COc1ccccc1)NCCSCc1ccc(Cl)cc1	-12.6

Moving on to the next compound.
Lab book: hERG current change (%, negative = inhibition) at 10uM of COCCn1cc(C(=O)c2ccccc2OCC(=O)Nc2cc(C)on2)cc(C#N)c1=O noted as 10.3
